Biological target: mA1AR (Mus musculus, UniProt Q60612)
Sequence (Q60612 1-326): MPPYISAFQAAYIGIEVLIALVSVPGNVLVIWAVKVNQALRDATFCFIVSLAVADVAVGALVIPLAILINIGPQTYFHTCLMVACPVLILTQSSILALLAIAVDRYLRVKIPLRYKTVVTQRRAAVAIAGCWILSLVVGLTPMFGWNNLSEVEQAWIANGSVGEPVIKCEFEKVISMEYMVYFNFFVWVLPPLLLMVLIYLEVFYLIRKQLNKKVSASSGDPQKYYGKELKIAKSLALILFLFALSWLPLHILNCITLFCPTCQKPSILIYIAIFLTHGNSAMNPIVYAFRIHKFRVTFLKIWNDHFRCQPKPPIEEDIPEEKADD
Assay: Adenosine receptor binding, mA1AR
Settings: (m); Ki; read-out: A1AR % inhibition or Ki (converted)
// reported Ki per item
Number in nM, nothing else.

INSERT INTO results (compound, quantity_kind, numeric_value) VALUES
  ('OC[C@@]12C[C@@H]1[C@@H](n1cnc3c(NC(C4CCC4)C4CCC4)nc(Cl)nc31)[C@H](O)[C@@H]2O', 'Ki', 2.47),
  ('NC(=O)c1ncn([C@H]2[C@H](O)[C@H](O)[C@]3(CO)C[C@H]23)n1', 'Ki', 25.2),
  ('O[C@H]1[C@H](n2cnc3c(NC(C4CCC4)C4CCC4)nc(Cl)nc32)[C@H]2C[C@@]2(CCl)[C@H]1O', 'Ki', 11.2);

**Query** Checklist item: Ki tested on mA1AR (Mus musculus, UniProt Q60612), entry O[C@H]1[C@H](n2cnc3c(NC(C4CCC4)C4CCC4)ncnc32)[C@H]2C[C@@]2(CCl)[C@H]1O , value?
**Result** 1.05

**Query** Checklist item: Ki tested on mA1AR (Mus musculus, UniProt Q60612), entry COC(=O)c1ncn([C@H]2[C@H](O)[C@H](O)[C@]3(CO)C[C@H]23)n1 , value?
**Result** 2990

**Query** Checklist item: Ki tested on mA1AR (Mus musculus, UniProt Q60612), entry O[C@H]1[C@H](n2cnc3c(N[C@H]4C[C@H]5CC[C@@H]4C5)nc(Cl)nc32)[C@H]2C[C@@]2(CCl)[C@H]1O , value?
**Result** 1.86

**Query** Checklist item: Ki tested on mA1AR (Mus musculus, UniProt Q60612), entry CCSC[C@H]1O[C@@H](n2cnc3c(NC(C4CCC4)C4CCC4)ncnc32)[C@H](O)[C@@H]1O , value?
**Result** 3.58

**Query** Checklist item: Ki tested on mA1AR (Mus musculus, UniProt Q60612), entry O=C(NC1CC1)[C@@]12C[C@@H]1[C@@H](n1cnc3c(N[C@H]4C[C@H]5CC[C@@H]4C5)nc(Cl)nc31)[C@H](O)[C@@H]2O , value?
**Result** 0.45

**Query** Checklist item: Ki tested on mA1AR (Mus musculus, UniProt Q60612), entry CNC(=O)[C@@]12C[C@@H]1[C@@H](n1cnc3c(NC4CCCC4)nc(Cl)nc31)[C@H](O)[C@@H]2O [Compound 6e, reference compound] , value?
**Result** 0.68

**Query** Checklist item: Ki tested on mA1AR (Mus musculus, UniProt Q60612), entry O[C@H]1[C@H](n2cnc3c(NC(C4CCC4)C4CCC4)nc(Cl)nc32)[C@H]2C[C@@]2(CSc2ccccc2F)[C@H]1O , value?
**Result** 2490

**Query** Checklist item: Ki tested on mA1AR (Mus musculus, UniProt Q60612), entry O=C(NCCO)[C@@]12C[C@@H]1[C@@H](n1cnc3c(N[C@H]4C[C@H]5CC[C@@H]4C5)nc(Cl)nc31)[C@H](O)[C@@H]2O , value?
**Result** 1.56

**Query** Checklist item: Ki tested on mA1AR (Mus musculus, UniProt Q60612), entry O[C@@H]1[C@H](O)[C@@H](CCl)O[C@H]1n1cnc2c(NC3CC4CCC3C4)ncnc21 (stereo partly drawn) [Compound 3, reference compound] , value?
**Result** 0.14

----------
Target: hA2AAR (Homo sapiens, UniProt P29274)
Construct: expressed in transfected cells; host or cells: HEK293
Sequence (P29274 whole entry): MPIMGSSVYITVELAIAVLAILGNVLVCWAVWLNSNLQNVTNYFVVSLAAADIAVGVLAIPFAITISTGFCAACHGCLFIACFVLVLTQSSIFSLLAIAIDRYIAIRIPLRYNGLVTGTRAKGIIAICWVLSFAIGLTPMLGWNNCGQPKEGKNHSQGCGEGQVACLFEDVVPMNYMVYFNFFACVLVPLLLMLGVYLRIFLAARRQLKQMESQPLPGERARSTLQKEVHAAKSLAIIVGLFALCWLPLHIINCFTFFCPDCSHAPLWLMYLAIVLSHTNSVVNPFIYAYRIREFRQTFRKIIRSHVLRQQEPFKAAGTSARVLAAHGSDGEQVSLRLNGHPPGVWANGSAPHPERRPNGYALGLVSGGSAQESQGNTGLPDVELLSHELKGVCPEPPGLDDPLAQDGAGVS
Experiment: Radioligand binding in membranes of HEK293 cells expressing hA2AAR
Settings: read-out: A2AAR % inhibition
Category scheme (inhibition at 10 µM): group 1 (below 20%), group 2 (20% to below 50%), group 3 (50% or more)

INSERT INTO results (molecule, discrete_label) VALUES
  ('NC(=O)c1ncn([C@@H]2O[C@H](CO)[C@@H](O)[C@H]2O)n1 [Compound 38, ribavirin, reference compound]', 'group 2');

**Query** Where would O[C@H]1[C@H](n2cnc3c(NC(C4CCC4)C4CCC4)ncnc32)[C@H]2C[C@@]2(CCl)[C@H]1O land among the classes by reported inhibition at 10 µM?
**Result** group 2

**Query** Where would O[C@H]1[C@H](n2cnc3c(N[C@H]4C[C@H]5CC[C@@H]4C5)nc(Cl)nc32)[C@H]2C[C@@]2(CCl)[C@H]1O land among the classes by reported inhibition at 10 µM?
**Result** group 3

**Query** Where would O[C@@H]1[C@H](O)[C@@H]2C[C@@H]2[C@H]1n1cnc2c(NC(C3CCC3)C3CCC3)nc(Cl)nc21 land among the classes by reported inhibition at 10 µM?
**Result** group 2

**Query** Where would CCSC[C@H]1O[C@@H](n2cnc3c(NC(C4CCC4)C4CCC4)ncnc32)[C@H](O)[C@@H]1O land among the classes by reported inhibition at 10 µM?
**Result** group 2

**Query** Where would COC(=O)c1ncn([C@H]2[C@H](O)[C@H](O)[C@]3(CO)C[C@H]23)n1 land among the classes by reported inhibition at 10 µM?
**Result** group 1

**Query** Where would NC(=O)c1ncn([C@H]2[C@H](O)[C@H](O)[C@]3(CO)C[C@H]23)n1 land among the classes by reported inhibition at 10 µM?
**Result** group 1

----------
Target: mA2AAR (Mus musculus, UniProt Q60613)
Sequence (Q60613 whole entry): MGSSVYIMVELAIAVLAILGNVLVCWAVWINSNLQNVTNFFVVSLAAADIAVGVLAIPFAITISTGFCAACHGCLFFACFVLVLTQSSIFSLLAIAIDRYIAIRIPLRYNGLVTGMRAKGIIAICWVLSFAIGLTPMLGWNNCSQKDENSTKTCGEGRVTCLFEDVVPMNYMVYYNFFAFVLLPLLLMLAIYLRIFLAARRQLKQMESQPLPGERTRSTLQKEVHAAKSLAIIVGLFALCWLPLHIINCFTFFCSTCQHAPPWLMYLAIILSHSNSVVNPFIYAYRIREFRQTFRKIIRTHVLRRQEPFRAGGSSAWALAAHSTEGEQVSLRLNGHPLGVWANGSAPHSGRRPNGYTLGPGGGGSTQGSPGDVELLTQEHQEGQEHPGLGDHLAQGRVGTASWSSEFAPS
Test: Adenosine receptor binding, mA2AAR
Conditions: read-out: A2AAR % inhibition (converted)
quantity kind: inhibition at 10 µM (%)
Number in %, nothing else.

Example entries and their recorded answers appear below.
INSERT INTO results (molecule, target_system, quantity_kind, units_label, numeric_value) VALUES
  ('O=C(NCCO)[C@@]12C[C@@H]1[C@@H](n1cnc3c(N[C@H]4C[C@H]5CC[C@@H]4C5)nc(Cl)nc31)[C@H](O)[C@@H]2O [Compound 37]', 'mA2AAR (Mus musculus, UniProt Q60613)', 'inhibition at 10 µM', '%', 23),
  ('OC[C@@]12C[C@@H]1[C@@H](n1cnc3c(NC(C4CCC4)C4CCC4)nc(Cl)nc31)[C@H](O)[C@@H]2O [Compound 25]', 'mA2AAR (Mus musculus, UniProt Q60613)', 'inhibition at 10 µM', '%', 26),
  ('O[C@H]1[C@H](n2cnc3c(NC(C4CCC4)C4CCC4)nc(Cl)nc32)[C@H]2C[C@@]2(CSc2ccccc2F)[C@H]1O [Compound 28]', 'mA2AAR (Mus musculus, UniProt Q60613)', 'inhibition at 10 µM', '%', 20),
  ('O[C@H]1[C@H](n2cnc3c(NC(C4CCC4)C4CCC4)nc(Cl)nc32)[C@H]2C[C@@]2(CCl)[C@H]1O [Compound 27]', 'mA2AAR (Mus musculus, UniProt Q60613)', 'inhibition at 10 µM', '%', 20);

Below: the item to evaluate.
**Query** Value lookup for inhibition at 10 µM; key = O[C@H]1[C@H](n2cnc3c(N[C@H]4C[C@H]5CC[C@@H]4C5)nc(Cl)nc32)[C@H]2C[C@@]2(CCl)[C@H]1O [Compound 31]
**Result** 15

----------
Molecular target: UniProt P28335
Sequence (P28335 33-458): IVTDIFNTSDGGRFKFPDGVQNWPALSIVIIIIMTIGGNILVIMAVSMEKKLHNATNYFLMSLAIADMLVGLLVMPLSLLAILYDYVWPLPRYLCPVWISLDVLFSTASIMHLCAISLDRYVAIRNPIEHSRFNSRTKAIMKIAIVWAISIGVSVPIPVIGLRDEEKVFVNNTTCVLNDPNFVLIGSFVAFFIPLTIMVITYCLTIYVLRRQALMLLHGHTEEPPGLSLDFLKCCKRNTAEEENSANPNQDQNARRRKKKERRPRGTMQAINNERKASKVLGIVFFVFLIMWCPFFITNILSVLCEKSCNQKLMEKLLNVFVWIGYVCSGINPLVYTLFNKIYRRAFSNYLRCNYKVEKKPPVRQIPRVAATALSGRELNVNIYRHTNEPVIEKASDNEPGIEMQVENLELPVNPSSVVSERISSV
Assay: Off-target interaction determined by the PDSP
Assay type: binding
Conditions: read-out: Off-target, receptor (h, unless noted) (Ki, μM): 5HT2C
quantity kind: Ki (µM)
Number in µM, nothing else.

Example entries and their recorded answers appear below.
INSERT INTO results (compound_structure_string, units_label, numeric_value) VALUES
  ('OC[C@@]12C[C@@H]1[C@@H](n1cnc3c(NC(C4CCC4)C4CCC4)nc(Cl)nc31)[C@H](O)[C@@H]2O', 'µM', 0.238),
  ('CNC(=O)[C@@]12C[C@@H]1[C@@H](n1cnc3c(NC(C4CC4)C4CC4)nc(Cl)nc31)[C@H](O)[C@@H]2O', 'µM', 0.749);

**Query** Checklist item: Ki tested on UniProt P28335, entry CCOC(=O)[C@@]12C[C@@H]1[C@@H](n1cnc3c(NC(C4CCC4)C4CCC4)nc(Cl)nc31)[C@H](O)[C@@H]2O , value?
**Result** 0.089

**Query** Checklist item: Ki tested on UniProt P28335, entry CCOC(=O)[C@@]12C[C@@H]1[C@@H](n1cnc3c(NC(C4CC4)C4CC4)nc(Cl)nc31)[C@H](O)[C@@H]2O , value?
**Result** 0.054

**Query** Checklist item: Ki tested on UniProt P28335, entry O[C@H]1[C@H](n2cnc3c(NC(C4CCC4)C4CCC4)nc(Cl)nc32)[C@H]2C[C@@]2(CSc2ccccc2F)[C@H]1O , value?
**Result** 1.46

**Query** Checklist item: Ki tested on UniProt P28335, entry O[C@H]1[C@H](n2cnc3c(NC(C4CCC4)C4CCC4)nc(Cl)nc32)[C@H]2C[C@@]2(CCl)[C@H]1O , value?
**Result** 1.75

**Query** Checklist item: Ki tested on UniProt P28335, entry OC[C@H]1O[C@@H](n2cnc3c(NC(C4CCC4)C4CCC4)nc(Cl)nc32)[C@H](O)[C@@H]1O , value?
**Result** 1.45

**Query** Checklist item: Ki tested on UniProt P28335, entry NC(=O)c1ncn([C@H]2[C@H](O)[C@H](O)[C@]3(CO)C[C@H]23)n1 , value?
**Result** 2.35

**Query** Checklist item: Ki tested on UniProt P28335, entry OC[C@@]12C[C@@H]1[C@@H](n1cnc3c(NC(C4CCC4)C4CCC4)ncnc31)[C@H](O)[C@@H]2O , value?
**Result** 1.32

Provenance of the data: patent US12378248B2
